The measurements presented in this section are drawn from ChEMBL document CHEMBL1201862.

Tested on: HCC 2998
METHOD_NOTES: NCI tumour cell line growth inhibition, 48 h
Activity calls are given as the source filed them. No stated cut-off is given here; in the data, active = GI50 up to about 1.1 µM and inactive = higher.
REPORTED_ENDPOINT: GI50

1) O=C1OC(c2ccc(Cl)cc2)(c2ccc(Cl)cc2)c2c1ccc1ccccc21 ... > 100 µM (inactive)
2) CC[S+]([O-])c1c2cc(OC)ccc2nc2ccc(OC)cc12 (stereo unspecified) ... 16.6 µM (inactive)
3) Cc1ccc(S(=O)(=O)N/N=C2\CC3C4C=CC3C2C4)cc1 (stereo unspecified) ... > 100 µM (inactive)
4) CN1C(=O)C2CCC(=O)N2c2cccnc21 (stereo unspecified) ... > 100 µM (inactive)
5) COc1ccc2c(c1)CC[C@@H]1C2CC[C@]2(C)C(=O)NC(=O)CC12 (stereo partly specified) ... 53.3 µM (inactive)
6) Cc1nc2c(Br)cc(Br)cc2c(=O)n1-c1ccccc1NC1OC(CO)C(O)C(O)C1O (stereo unspecified) ... > 100 µM (inactive)
7) COc1ccccc1NC(=S)N/N=C/c1c(C)n(C)n(-c2ccccc2)c1=O ... > 100 µM (inactive)
8) COc1ccccc1C(O)[C@@H]1C[C@@H]2[C@H]3CC[C@@](C)([C@@H]2O1)C3(C)C (stereo partly specified) ... 20.8 µM (inactive)
9) CCOC(=O)c1sc2c(c1OC(=O)c1cc(OC)c(OC)c(OC)c1)c(=O)n(-c1ccccc1)c(=S)n2-c1ccccc1 ... 81.3 µM (inactive)
10) COc1cc2c(cc1OC)C(OC)N(C)c1c-2ccc2cc3c(cc12)OCO3 (stereo unspecified) ... 1.65 µM (inactive)
11) CC1(C)OC2C(CCP(=O)(O)O)OC(c3nc(C(N)=O)cs3)C2O1 (stereo unspecified) ... > 100 µM (inactive)
12) CCOc1ccc(/N=C/c2c3ccccc3nc3ccccc23)cc1 ... > 100 µM (inactive)
13) CCOC(=O)C1(C(=O)OCC)CN(CC)CN(c2ccccc2)C1 ... 15.4 µM (inactive)
14) CSC1NC(c2ccccc2)=C(C#N)C(=O)N1C1OCC(OC(C)=O)C(OC(C)=O)C1OC(C)=O (stereo unspecified) ... > 100 µM (inactive)
15) CCOC(=O)C(NC(=O)CC)(Nc1ccc(F)cc1F)C(F)(F)F (stereo unspecified) ... > 100 µM (inactive)
16) CN(C)Nc1cc(=O)[nH]c(=O)[nH]1 ... > 100 µM (inactive)
17) COc1ccc2c(c1)N=C1CSC(c3ccccc3Cl)N1C2 (stereo unspecified) ... 5.07 µM (inactive)
18) CN(C)Cc1cc(/N=N/c2ccc(Cl)c(Cl)c2)ccc1O ... 12.1 µM (inactive)
19) Cn1c(COC(=O)Nc2ccccc2)c(COC(=O)Nc2ccccc2)c2ccc3cc(Cl)c(Cl)cc3c21 ... 5.5 µM (inactive)
20) C#CCOCn1cnc2c(S)ncnc21 ... > 100 µM (inactive)
21) CC(C)(C)OC(=O)/C=C/[C@@H](CCC(=O)/C=C/[C@H](/C=C\CCCC(=O)O)NC1(c2ccccc2)c2ccccc2-c2ccccc21)O[Si](C)(C)C(C)(C)C ... 16.8 µM (inactive)
22) Cc1ccc2c(c1)C(=O)C1(Cc3ccccc3C1=O)C2 (stereo unspecified) ... > 100 µM (inactive)
23) COC(=O)c1cccc(C(=O)OC)c1 ... > 100 µM (inactive)
24) Cc1c(-c2ccccc2)n(C)c2cn[nH]c(=O)c12 ... 27.8 µM (inactive)
25) Cc1cc(Cl)cc2c1NC(=O)C2(O)CC(=O)c1ccc(F)cc1 (stereo unspecified) ... 36.1 µM (inactive)
26) Cc1ccc(-c2nnc(CCCCCCCCc3nnc(-c4ccc(C)cc4O)n3N)n2N)c(O)c1 ... > 100 µM (inactive)

###

Tested on: MOLT-4
METHOD_NOTES: NCI tumour cell line growth inhibition, 48 h
Activity calls are given as the source filed them. Cut-off read from the data, not from the text of the source: active = GI50 up to about 1.1 µM and inactive = higher.
Outcomes: active, inactive

1) O=C(c1ccc([N+](=O)[O-])cc1)C(Br)C(Br)c1ccnc2ccccc12 (stereo not drawn) ... inactive
2) C1CCC2(CC1)O[C@@H]1[C@@H](O2)[C@@H](O[C@H]2O[C@@H]3COC4(CCCCC4)O[C@H]3[C@@H]3OC4(CCCCC4)O[C@@H]23)O[C@@H]2COC3(CCCCC3)O[C@@H]12 ... inactive
3) N#Cc1sc2nc3c(c(-c4ccccc4)c2c1N)CCCC3 ... inactive
4) C#CC(O)/C=C/CCCCCCC#CC/C=C\CC#CCCCCCC/C=C/C(O)C#C (stereo not drawn) ... active
5) Clc1ccc2c(c1)CC1C[N+]3=C(CCCCC3)C1=C2 (stereo not drawn) ... inactive
6) Cc1nc(C)c(C(=O)Nc2cccc3c2C(=O)NC3=O)cc1C(=O)Nc1cccc2c1C(=O)NC2=O ... inactive
7) Cc1cccc2c(N)c3cccc(C(=O)NCC[N+]4(Cc5ccc([N+](=O)[O-])cc5)CCOCC4)c3nc12 ... inactive
8) O=C1CN(c2ccccc2)C(=O)C1C(=O)Nc1ccc(Cl)c(Cl)c1 (stereo not drawn) ... inactive
9) CC(=O)O/C=C\OC1CCCC1(c1ccccc1)c1ccccc1 (stereo not drawn) ... inactive
10) O=C1/C(=C/c2ccccc2Cl)COc2ccc(Br)cc21 ... inactive
11) NS(=O)(=O)c1ccc(NC(=S)NC=C2C(=O)c3ccccc3C2=O)cc1 ... inactive
12) CC1=C(C(N)=O)C(c2ccncc2)C(C#N)C(=O)N1 (stereo not drawn) ... inactive
13) O=c1c2c(-c3ccccc3)onc2n(-c2ccccc2)c(=O)n1-c1ccccc1 ... inactive
14) O=C(n1c(=O)n(-c2ccc([N+](=O)[O-])cc2)c(=O)n1C(=O)C(Cl)(Cl)Cl)C(Cl)(Cl)Cl ... inactive
15) CC(=O)ON(C(C)=O)c1ccc(-c2nc3ccccc3s2)cc1C ... inactive
16) Fc1c(F)c(F)c(CSc2nc3ccccc3[nH]2)c(F)c1F ... inactive
17) Cc1ccc(C(=O)/C=C2\Nc3ccccc3SC2=O)c(C)c1 ... inactive
18) CCCCCCCC(CC(=O)NC(CO)C(=O)NC(CO)CC(C)C)OC(=O)CC(CCCCCCC)OC(=O)CC(CCCCCCC)OC1OC(C)C(O)C(OC2OC(C)C(O)C(O)C2OC(C)=O)C1O (stereo not drawn) ... inactive
19) CSC1NC(c2ccccc2)=C(C#N)C(=O)N1C1OCC(OC(C)=O)C(OC(C)=O)C1OC(C)=O (stereo not drawn) ... inactive
20) Cc1noc(C)c1/N=N/c1ccc2nonc2c1N ... inactive
21) Cc1ccc(NC(=S)NNC(=O)c2cc(-c3ccccc3)nc3ccccc23)cc1 ... inactive
22) CO/C(=N/N1CC1C(F)(F)F)c1ccncc1 (stereo not drawn) ... inactive
23) c1ccc(COc2cccc3cccnc23)cc1 ... inactive
24) Cc1c(-c2ccccc2)n(C)c2cn[nH]c(=O)c12 ... inactive
25) Cc1nc(-c2cc3cc(Cl)ccc3oc2=O)cc2c1c(=O)oc1ccc(Cl)cc12 ... inactive
26) COc1ccc(C2=Nc3c(nc(OC)[nH]c3=O)NC(c3ccccc3)C2)cc1 (stereo not drawn) ... inactive
27) O=c1[nH]c2c(c(=O)[nH]1)SSC2 ... inactive
28) CN(C)CCC(=O)/C=C\c1ccccc1 ... inactive
29) N#CCC(=O)Nc1ccccc1O ... inactive
30) Cc1ccc(NC(S)=Nc2c(C)n(C)n(-c3ccccc3)c2=O)cc1 ... inactive
31) COc1cccc(NC(=O)c2c(N)n[nH]c2SC)c1 ... inactive
32) C[C@@H]1OC(=O)C[C@H]2CC(=O)N(CCc3cn(S(=O)(=O)C(F)(F)F)c4ccccc34)C[C@@H]21 ... inactive
33) COC(=O)c1cccc(C(=O)OC)c1 ... inactive

###

GI50 for assorted compounds
Tested on: K562
METHOD_NOTES: NCI tumour cell line growth inhibition, 48 h
Calls of active or inactive are those of the source. Cut-off read from the data, not from the text of the source: active = GI50 up to about 1.1 µM and inactive = higher.
REPORTED_ENDPOINT: GI50

1) COC1OC(C)C(OCc2ccccc2)C(OS(=O)(=O)c2ccc(C)cc2)C1OS(=O)(=O)c1ccc(C)cc1 (stereo unspecified) ... > 100 µM (inactive)
2) Cc1ccc(S(=O)(=O)Nn2c(S)c(C#N)c(-c3ccc(Cl)cc3)c(C#N)c2=O)cc1 ... 38.6 µM (inactive)
3) COC(=O)C[C@H]1CCC2(OCCO2)[C@]1(C)C(=O)OC ... > 100 µM (inactive)
4) COc1ccc(C(=O)C2=NON3OC23C(=O)c2ccc(OC)cc2)cc1 (stereo unspecified) ... 3.12 µM (inactive)
5) C#CC(O)/C=C/CCCCCCC#CC/C=C\CC#CCCCCCC/C=C/C(O)C#C (stereo unspecified) ... 2.05 µM (inactive)
6) COc1ccc2c(c1)N(C(C)=O)CN1C(=O)CCC21 (stereo unspecified) ... 79.6 µM (inactive)
